Origin of measurements: patent US12606543B2

- testName: Pharmacokinetic studies in rat (i.v.)
- Assay type: in vivo
- experimentalParameters: male, Sprague-Dawley, plasma, intravenous, dose per Dose column (1.32-2.09 mg/kg), 4 h, first animal (R07/R04/R01/R10), read-out: Plasma concentration

[
  {
    "compound": "[2H]C([2H])(c1c[nH]c2ccc(OCCCCCN3C(=O)c4ccccc4C3=O)cc12)[C@H]1CCCN1C([2H])([2H])[2H] [(R) I-245]",
    "concentration at 4 h (ng/mL)": 39.9
  },
  {
    "compound": "[2H]C([2H])(c1c[nH]c2ccc(OCCCCCN3C(=O)C4CCCCC4C3=O)cc12)[C@H]1CCCN1C([2H])([2H])[2H] (mixture of isomers) [Rac (R) I-248]",
    "concentration at 4 h (ng/mL)": 27.8
  },
  {
    "compound": "[2H]C([2H])(c1c[nH]c2ccc(OCCCCN3C(=O)c4ccccc4C3=O)cc12)[C@H]1CCCN1C([2H])([2H])[2H] [(R) I-244]",
    "concentration at 4 h (ng/mL)": 20.7
  },
  {
    "compound": "COCCN1CCC[C@@H]1Cc1c[nH]c2ccc(OC)cc12 [(R) I-98]",
    "concentration at 4 h (ng/mL)": 2.48
  }
]

----------
- testTarget: human 5-hydroxytryptamine receptor 2A (5-HT2A) (Homo sapiens)
- Sequence (P28223 whole entry): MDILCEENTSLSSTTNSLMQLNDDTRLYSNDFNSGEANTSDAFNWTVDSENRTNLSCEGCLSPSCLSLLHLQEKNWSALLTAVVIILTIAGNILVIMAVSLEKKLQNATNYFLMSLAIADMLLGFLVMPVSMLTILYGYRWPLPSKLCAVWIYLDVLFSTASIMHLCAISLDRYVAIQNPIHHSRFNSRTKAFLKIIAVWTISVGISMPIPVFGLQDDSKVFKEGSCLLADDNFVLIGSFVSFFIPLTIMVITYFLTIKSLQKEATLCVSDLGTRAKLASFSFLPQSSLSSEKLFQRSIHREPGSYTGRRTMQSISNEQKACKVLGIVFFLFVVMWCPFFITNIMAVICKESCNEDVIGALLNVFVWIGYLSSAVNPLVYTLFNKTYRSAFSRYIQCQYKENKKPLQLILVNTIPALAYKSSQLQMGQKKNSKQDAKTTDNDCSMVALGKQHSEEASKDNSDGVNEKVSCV
- testName: Human 5-HT2A functional FLIPR assay (agonist mode)
- Format: cell-based
- Design: expressed in transfected cells; host or cells: Flp-In-293 (HEK293)
- experimentalParameters: FLIPR calcium, agonist mode, HTR2A&Gα15-HEK293 cells; read-out: h5-HT2A, EC50
pEC50: −log10 of the molar value.

[
  {
    "compoundStructureString": "CN(C)CCc1c[nH]c2ccccc12",
    "testTarget": "human 5-hydroxytryptamine receptor 2A (5-HT2A) (Homo sapiens)",
    "pEC50": 6.79
  }
]

----------
- testName: Pharmacokinetic studies in rat (i.v.)
- Assay type: in vivo
- experimentalParameters: male, Sprague-Dawley, plasma, iv, rat plasma, i.v., dose per Dose column, estimated from 2 points only, third animal (R09/R06/R03/R12), read-out: Apparent t1/2 (converted)

[
  {
    "molecule": "COCCN1CCC[C@@H]1Cc1c[nH]c2ccc(OC)cc12 [(R) I-98]",
    "half-life (min)": 30.3
  },
  {
    "molecule": "[2H]C([2H])(c1c[nH]c2ccc(OCCCCCN3C(=O)C4CCCCC4C3=O)cc12)[C@H]1CCCN1C([2H])([2H])[2H] (mixture of isomers) [Rac (R) I-248]",
    "half-life (min)": 49.4
  },
  {
    "molecule": "[2H]C([2H])(c1c[nH]c2ccc(OCCCCN3C(=O)c4ccccc4C3=O)cc12)[C@H]1CCCN1C([2H])([2H])[2H] [(R) I-244]",
    "half-life (min)": 66
  },
  {
    "molecule": "[2H]C([2H])(c1c[nH]c2ccc(OCCCCCN3C(=O)c4ccccc4C3=O)cc12)[C@H]1CCCN1C([2H])([2H])[2H] [(R) I-245]",
    "half-life (min)": 176
  }
]

----------
concentration at 4 h values, listed per item
- testName: Pharmacokinetic studies in rat (i.v.)
- Format: in vivo
- experimentalParameters: male, Sprague-Dawley, plasma, intravenous, dose per Dose column (1.32-2.09 mg/kg), 4 h, mean of 3 rats, read-out: Plasma concentration, Mean ± SD
- Protocol: Animals: Male Sprague-Dawley rats (˜225-350 g) from Charles River Labs were acclimatized for a minimum of 5 days prior to start of study procedures. Body weights were recorded on the day of dosing. Any abnormalities were documented including presence/absence of wet dog shakes/back muscle contractions (WDS/BMC). Dosing: Formulations were administered intravenously (i.v.) via the tail vein using a 25 G needle connected to a 1 cc syringe. […]
quantityMeasured: concentration at 4 h (ng/mL)

[
  {
    "molecule": "[2H]C([2H])(c1c[nH]c2ccc(OCCCCCN3C(=O)C4CCCCC4C3=O)cc12)[C@H]1CCCN1C([2H])([2H])[2H] (mixture of isomers) [Rac (R) I-248]",
    "quantityMeasured": "concentration at 4 h",
    "endpointResult": 18.8
  },
  {
    "molecule": "[2H]C([2H])(c1c[nH]c2ccc(OCCCCN3C(=O)c4ccccc4C3=O)cc12)[C@H]1CCCN1C([2H])([2H])[2H] [(R) I-244]",
    "quantityMeasured": "concentration at 4 h",
    "endpointResult": 22
  },
  {
    "molecule": "[2H]C([2H])(c1c[nH]c2ccc(OCCCCCN3C(=O)c4ccccc4C3=O)cc12)[C@H]1CCCN1C([2H])([2H])[2H] [(R) I-245]",
    "quantityMeasured": "concentration at 4 h",
    "endpointResult": 43.9
  },
  {
    "molecule": "COCCN1CCC[C@@H]1Cc1c[nH]c2ccc(OC)cc12 [(R) I-98]",
    "quantityMeasured": "concentration at 4 h",
    "endpointResult": 2.32
  }
]

----------
- testName: Plasma protein binding by equilibrium dialysis, mouse
- Format: in vitro ADME
- experimentalParameters: CD-1; mouse plasma, equilibrium dialysis, 37° C., 6 hours; read-out: % Bound (converted)
- Method: The final concentration of compound was 1 μM. The final concentration of DMSO was 0.5%. Ketoconazole was used as positive control in the assay. The assay was performed in duplicate. All calculations were carried out using Microsoft Excel. […] The percentages of bound compound were calculated as follows: […] Ketoconazole was used as positive control in the assay.

[
  {
    "molecule": "[2H]C([2H])(c1c[nH]c2ccc(OCCCCN3C(=O)c4ccccc4C3=O)cc12)[C@H]1CCCN1C([2H])([2H])[2H] [(R) I-244]",
    "fraction unbound at 6 h, 1 μM": 0.101
  },
  {
    "molecule": "COCCN1CCC[C@@H]1Cc1c[nH]c2ccc(OC)cc12 [(R) I-98]",
    "fraction unbound at 6 h, 1 μM": 0.632
  }
]

----------
half-life at 2 μM values, listed per item
- testName: Liver microsomes stability, human
- Type: in vitro ADME
- experimentalParameters: human liver microsomes, 2 μM compound, 0.5 mg/mL microsomes
quantityMeasured: half-life at 2 μM (min)

[
  {
    "compound": "[2H]C([2H])(c1c[nH]c2ccc(OCCCCN3C(=O)c4ccccc4C3=O)cc12)[C@H]1CCCN1C([2H])([2H])[2H] [(R) I-244]",
    "boundSign": "=",
    "endpointResult": 5.98
  },
  {
    "compound": "[2H]C([2H])(c1c[nH]c2ccc(OCCCCCN3C(=O)c4ccccc4C3=O)cc12)[C@H]1CCCN1C([2H])([2H])[2H] [(R) I-245]",
    "boundSign": "=",
    "endpointResult": 12
  },
  {
    "compound": "[2H]C([2H])(c1c[nH]c2ccc(OCCCCCN3C(=O)C4CCCCC4C3=O)cc12)[C@H]1CCCN1C([2H])([2H])[2H] (mixture of isomers) [Rac (R) I-248]",
    "boundSign": "<",
    "endpointResult": 4.51
  },
  {
    "compound": "COCCN1CCC[C@@H]1Cc1c[nH]c2ccc(OC)cc12 [(R) I-98]",
    "boundSign": "=",
    "endpointResult": 64.3
  }
]

----------
- testName: Liver microsomes stability, rat
- Assay type: in vitro ADME
- experimentalParameters: rat liver microsomes

[
  {
    "compound": "[2H]C([2H])(c1c[nH]c2ccc(OCCCCN3C(=O)c4ccccc4C3=O)cc12)[C@H]1CCCN1C([2H])([2H])[2H] [(R) I-244]",
    "Predicted hepatic CL": "47.87 mL/min/kg"
  },
  {
    "compound": "[2H]C([2H])(c1c[nH]c2ccc(OCCCCCN3C(=O)c4ccccc4C3=O)cc12)[C@H]1CCCN1C([2H])([2H])[2H] [(R) I-245]",
    "Predicted hepatic CL": ">50.17 mL/min/kg"
  },
  {
    "compound": "O=C(O)Cc1ccccc1Nc1c(Cl)cccc1Cl",
    "Predicted hepatic CL": "41.22 mL/min/kg"
  },
  {
    "compound": "COCCN1CCC[C@@H]1Cc1c[nH]c2ccc(OC)cc12 [(R) I-98]",
    "Predicted hepatic CL": "45.13 mL/min/kg"
  },
  {
    "compound": "[2H]C([2H])(c1c[nH]c2ccc(OCCCCCN3C(=O)C4CCCCC4C3=O)cc12)[C@H]1CCCN1C([2H])([2H])[2H] (mixture of isomers) [Rac (R) I-248]",
    "Predicted hepatic CL": ">50.17 mL/min/kg"
  }
]
